# test.target: human chemokine receptor 2 isoform B (Homo sapiens, UniProt P41597)
# Sequence (P41597 1-360 isoform P41597-2): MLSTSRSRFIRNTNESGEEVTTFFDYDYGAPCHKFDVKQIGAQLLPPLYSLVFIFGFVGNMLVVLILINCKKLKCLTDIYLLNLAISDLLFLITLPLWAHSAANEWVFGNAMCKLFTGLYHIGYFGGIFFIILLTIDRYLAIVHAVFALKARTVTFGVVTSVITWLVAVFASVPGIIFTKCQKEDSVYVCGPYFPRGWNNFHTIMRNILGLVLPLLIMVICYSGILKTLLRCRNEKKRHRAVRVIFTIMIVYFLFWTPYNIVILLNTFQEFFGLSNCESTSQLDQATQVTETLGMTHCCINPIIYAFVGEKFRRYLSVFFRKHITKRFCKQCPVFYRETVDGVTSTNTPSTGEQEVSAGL
# assay.comment: Calcium mobilization assay (FLIPR, CHOK1-CCR2B-A5 cells, 20 nM MCP-1)
# run.parameters: Ca mobilisation assay, CCR2, antagonist activity vs 20 nM MCP-1
quantity.name: IC50 (nM)

The following compounds have reported results that may help.
O=C(O)C(CN1CCCCC1)CN1CCN(C(=O)/C=C/c2ccc(Cl)c(Cl)c2)CCC1=O (racemic)
1230
O=C(/C=C/c1ccc(Cl)c(Cl)c1)N1CCC(=O)N(CCCN2CC[C@@H](F)[C@H](O)C2)CC1 (racemic)
215
O=C(/C=C/c1ccc(F)c(Cl)c1)N1CCC(=O)N(CCCCN2CCC(CO)CC2)CC1
380

[P] O=C(/C=C/c1ccc(Cl)c(Cl)c1)N1CCC(=O)N(CCCN2CCC(F)(F)CC2)CC1
[Q] O=C(C=Cc1ccc(Cl)c(Cl)c1)N1CCC(=O)N(CCNC2CCCCC2O)CC1 (stereo not drawn)
[R] CC1CCN(CCCN2CCN(C(=O)C=Cc3ccc(Cl)c(F)c3)CCC2=O)CC1O (single isomer, unassigned) [Example 491]
[S] O=C(/C=C/c1ccc(Cl)c(Cl)c1)N1CCC(=O)N(CCCN2CCC(c3ccccc3)CC2)CC1
[T] CN(CCN1CCN(C(=O)/C=C/c2ccc(Cl)c(Cl)c2)CCC1=O)C1CCOCC1
input: Give the ascending ranking of the items by reported IC50. Output spec: a listing of the labels in the requested order.
output: S, P, R, Q, T
(S: 13 nM, P: 98 nM, R: 216 nM, Q: 385 nM, T: 600 nM)

[I] CC(C)CN1CCN(CCCCN2CCN(C(=O)/C=C/c3ccc(Cl)c(Cl)c3)CCC2=O)CC1
[II] O=C(/C=C/c1ccc(Cl)c(F)c1)N1CCC(=O)N(CCCCN2CCC[C@H](O)[C@@H]2CO)CC1 (racemic)
input: // select label with min value of measured IC50 from [ I , II ] Answer by quoting the chosen item's label.
output: II
(II: 250 nM, I: 376 nM)

[a] COC[C@H]1CCN(CCCN2CCN(C(=O)/C=C/c3ccc(Cl)c(Cl)c3)CCC2=O)C[C@H]1O (racemic)
[b] C[C@@H]1CN(CC(O)CCN2CCN(C(=O)/C=C/c3ccc(Cl)c(Cl)c3)CCC2=O)CC[C@H]1O (mixture of isomers)
input: Of the two listed items, which has the higher IC50? First: a Second: b Pick one; state its label.
output: b

[1] O=C(/C=C/c1ccc(Cl)c(Cl)c1)N1CCC(=O)N(CCCCN2CC[C@@H](CO)[C@H](O)C2)CC1 (racemic)
[2] O=C(/C=C/c1ccc(F)c(Cl)c1)N1CCC(=O)N(CCCN2CCC3(CC3)C(O)C2)CC1 (stereo not drawn) [Example 189]
input: Would you mind telling me which has the lower recorded IC50 between 1 and 2 ? When you have decided, please share the label of that item.
output: 2
